src = patent US10253035B2

# target-desc: Eis_Mtb (Mycobacterium tuberculosis)
# Sequence (P9WFK7 2-402 limits assumed): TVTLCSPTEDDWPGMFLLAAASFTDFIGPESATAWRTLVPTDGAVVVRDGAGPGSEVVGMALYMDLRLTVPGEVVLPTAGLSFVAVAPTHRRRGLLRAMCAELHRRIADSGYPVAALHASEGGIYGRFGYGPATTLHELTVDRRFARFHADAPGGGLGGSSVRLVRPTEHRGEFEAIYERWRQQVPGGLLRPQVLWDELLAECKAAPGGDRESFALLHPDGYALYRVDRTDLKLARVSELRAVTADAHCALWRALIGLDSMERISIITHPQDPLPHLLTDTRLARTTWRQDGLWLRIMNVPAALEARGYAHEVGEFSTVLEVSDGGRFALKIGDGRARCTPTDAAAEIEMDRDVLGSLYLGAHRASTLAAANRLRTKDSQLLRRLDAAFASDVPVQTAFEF
# assay-info: biochemical
# Type: biochemical
# conditions: read-out: IC50
pIC50: recorded values
pIC50 (log units): -log10 of the concentration in mol/L.

Completed entries (count: 4):
Return the recorded pIC50 value; entry: O=C(C[N+]1=C(c2ccc(F)c(F)c2)c2cccn2CC1)c1cccc(Cl)c1
7.37

Return the recorded pIC50 value; entry: O=C(CN1C(=O)C2(OCCO2)c2ccccc21)c1cccc([N+](=O)[O-])c1
5.92

Return the recorded pIC50 value; entry: CC1=C(c2ccc(F)cc2)S(=O)(=O)N=C1N1CCC(N2CCCCC2)CC1 [Compound 46b]
7.04

Return the recorded pIC50 value; entry: Cc1ccc(C(=O)C[N+]2=C(c3ccc(F)c(F)c3)c3cccn3CC2)cc1
6.96

API: the following record is the query input.
Return the recorded pIC50 value; entry: O=C(C[N+]1=C(c2ccc(F)c(F)c2)c2cccn2CC1)c1ccc(F)cc1
6.96
